- System: SNB-19 CNS
- Assay explanation: NCI-60 one-dose screen, 48 h (100 = growth as untreated, 0 = no growth, -100 = all killed)
- Conditions: 10 µM unless noted
Compounds without any hit were thinned out: in the full panel of roughly 83,000, 20% have a hit.
The threshold is -50%. Values of growth beneath it are tagged Met; values meeting or exceeding it are tagged Not met.

                                   compound    group
0               Cc1cccc[n+]1CCC[n+]1ccccc1C  Not met
1  CCCc1nn2c(CCC(=O)c3nc4ccc([N+](=O)[O-])cc4[nH]3)nnc2s1  Not met
2  CC1=C[S+](c2ccccc2)c2cccc3cc4ccccc4c1c23 (stereo not given)      Met

We now examine a further compound.
Strictly below -50% in growth? C=C1C(=O)O[C@H]2[C@H]1CC/C(COC(=O)c1cccc3ccccc13)=C\CC[C@@]1(C)O[C@@H]21
Not met
